# Test system: SK-MEL-5
# METHOD SUMMARY: NCI sixty human tumor cell line screen, Melanoma panel
# Type: cell-based
# PARTICULARS: SK-MEL-5, Melanoma, NCI protocol
Measured GI50 accompanies every entry in the list below.
PROPERTY LABEL: GI50

In [3]: df
Out[3]:
                         structure_notation  property_label  observed_value
0  COc1ccc(Nc2ncccc2C(=O)NCc2cn(Cc3cccc(Oc4ccccc4)c3)nn2)cc1            GI50          2.9 µM
1  O=C(NCc1cn(Cc2cccc(Oc3ccccc3)c2)nn1)c1cccnc1Nc1ccccc1            GI50         3.89 µM
2  COc1ccc(Nc2ncccc2C(=O)NCc2cn(Cc3cccc(Oc4ccccc4)c3)nn2)c(OC)c1            GI50         0.72 µM
3  O=C(NCc1cn(Cc2cccc(Oc3ccccc3)c2)nn1)c1cccnc1Nc1ccc(F)cc1            GI50         4.48 µM
4  COc1cc(Nc2ncccc2C(=O)NCc2cn(Cc3cccc(Oc4ccccc4)c3)nn2)cc(OC)c1            GI50         3.11 µM
5  O=C(NCc1cn(Cc2cccc(Oc3ccccc3)c2)nn1)c1cccnc1NCc1ccc(Cl)cc1            GI50         2.53 µM
